Activity overview
Test: Cytotoxicity against LPS-stimulated human THP-1 cells at 10 uM after 24 hrs by CCK-8 assay
Details: THP-1, 24 h
The response must be a number in % with no trailing unit.

Consider the following illustrative entries.
COc1cc(OC)c(C(=O)c2ccccc2F)c(O)c1CN1CCCCC1 : 31
COc1cc(OC)c(C(=O)c2ccccc2Br)c(O)c1CN1CCCCC1 : 61
COc1cc(O)c(C(=O)c2ccccc2F)c(OC)c1 : 53
COc1cc(O)c(C(=O)c2ccccc2Br)c(OC)c1 : 43
COc1cc(OC)c(C(=O)c2ccccc2F)c(O)c1CN1CCCC1 : 27
COc1cc(OC)c(C(=O)c2cccc(F)c2)c(O)c1CN1CCCCC1 : 27
COc1cc(OC)c(C(=O)c2cccc(Cl)c2)c(O)c1CN1CCOCC1 : 39
COc1cc(OC)c(C(=O)c2ccccc2Br)c(O)c1CN1CCCC1 : 84

Next up:
Dear colleague, I am looking for the recorded Activity of the following compound: COc1cc(OC)c(C(=O)c2cccc(F)c2)c(O)c1CN1CCN(C)CC1
22
